- ASSAY: In vivo pharmacokinetic study in SD rats
- CONDITION_NOTES: Sprague-Dawley, rat, po, 20 mg/kg
PROPERTY_MEASURED: AUC (ng·h/mL)
Supply the numeric figure in ng·h/mL, leaving out any unit text.

input: What measured AUC goes with Nc1ccc(S(=O)(=O)N2CCN(CC(=O)N[C@@H](Cc3cc(F)cc(F)c3)c3nc4ccccc4c(=O)n3-c3ccc(S(=O)(=O)N4CCOCC4)cc3)C(=O)C2)cc1 [21a2] ?
output: 37.3

###

// endpoint pKd / system monomeric HIV-1 CA NL4.3 protein (Human immunodeficiency virus type 1 group M subtype B)
pKd field: float, defined as -log10 of concentration (mol/L).

>  <MOLECULE>
COc1ccc(-n2c([C@H](Cc3cc(F)cc(F)c3)NC(=O)CN3CCN(S(=O)(=O)c4ccc(N)cc4)CC3=O)nc3ccccc3c2=O)cc1 [12a2]

>  <PROPERTY_MEASURED>
pKd

>  <VALUE_OBSERVED>
6.08

$$$$

For the next question, use this molecule.
input: What measured pKd goes with Nc1ccc(S(=O)(=O)N2CCN(CC(=O)N[C@@H](Cc3cc(F)cc(F)c3)c3nc4ccccc4c(=O)n3-c3ccc(S(=O)(=O)N4CCOCC4)cc3)C(=O)C2)cc1 [21a2] ?
output: 6.61
